Experimental Target: Na+, K+-ATPase (Canis lupus familiaris)
Method Notes: biochemical
Set-up: species or system dog
Measurement Conditions: dog kidney enzyme; read-out: Na+, K+-ATPase Inhibition IC50
Where a name gives a salt, the structure may show the parent alone.
Assignment: determine reported IC50 for the given molecules.
Report the figure in nM without appending any unit label.

The molecule COCC1CC2C3CCC(=O)C3(C)CCC2C2(C)CCC(=NOCCN)CC12 (mixture of isomers) [I-ak, hydrochloride] on Na+, K+-ATPase (Canis lupus familiaris): IC50 was 3000

The molecule C[C@]12CC[C@H]3[C@@H](C[C@@H](C#N)[C@@]4(O)CC(=NOCCN)CC[C@]34C)[C@@H]1CCC2=O (mixture of isomers) [I-ae] on Na+, K+-ATPase (Canis lupus familiaris): IC50 was 11000

The molecule CON=C1CC2C3CCC(=O)C3(C)CCC2C2(C)CCC(=NOCCN)CC12 (mixture of isomers) [I-aw, hydrochloride] on Na+, K+-ATPase (Canis lupus familiaris): IC50 was 17

The molecule CNCCCON=C1CC[C@@]2(C)[C@H](C1)C[C@H](CO)[C@@H]1[C@@H]2CC[C@]2(C)C(=O)CC[C@@H]12 (mixture of isomers) [I-cw, hydrochloride] on Na+, K+-ATPase (Canis lupus familiaris): IC50 was 2300

The molecule COC(=O)C=C1CC2C3CCC(=O)C3(C)CCC2C2(C)CCC(=NOCCN)CC12 (mixture of isomers) [I-bk, hydrochloride] on Na+, K+-ATPase (Canis lupus familiaris): IC50 was 64000

The molecule CC12CCC3C(CC(O[N+](=O)[O-])C4CC(=NOCCN)CCC43C)C1CCC2=O (single isomer, unassigned) [I-ab] on Na+, K+-ATPase (Canis lupus familiaris): IC50 was 2900

The molecule CNCCCON=C1CCC2(C)C(C1)CC1(CC1)C1C3CCC(=O)C3(C)CCC12 (mixture of isomers) [I-cv, hydrochloride] on Na+, K+-ATPase (Canis lupus familiaris): IC50 was 740

The molecule C=CCON=C1CC2C3CCC(=O)C3(C)CCC2C2(C)CCC(=NOCCN)CC12 (stereo not drawn) [I-ay] on Na+, K+-ATPase (Canis lupus familiaris): IC50 was 43000

The molecule CNCCCON=C1CCC2(C)C(C1)C(CO)C(O)C1C3CCC(=O)C3(C)CCC12 (mixture of isomers) [I-ek, hydrochloride] on Na+, K+-ATPase (Canis lupus familiaris): IC50 was 320

The molecule CNCCCON=C1CCC2(C)C(C1)C(C(=O)OC)CC1C3CCC(=O)C3(C)CCC12 (mixture of isomers) [I-cm, hydrochloride] on Na+, K+-ATPase (Canis lupus familiaris): IC50 was 4000

The molecule C=C1C[C@@H]2[C@H](CC[C@]3(C)C(=O)CC[C@@H]23)[C@@]2(C)CC[C@@H](SCCCN)CC12 (stereo partly drawn) [I-dz, fumarate] on Na+, K+-ATPase (Canis lupus familiaris): IC50 was 1500

The molecule CC12CCC3C(CC(CO)C4CC(=NOCCN)CCC43C)C1CCC2=O (single isomer, unassigned) [I-ao, hydrochloride] on Na+, K+-ATPase (Canis lupus familiaris): IC50 was 180

Reference for the values: patent US8609644B2
